Target: plurality of kinases (Table 5) (Homo sapiens, UniProt P45985)
Sequence (P45985 whole entry): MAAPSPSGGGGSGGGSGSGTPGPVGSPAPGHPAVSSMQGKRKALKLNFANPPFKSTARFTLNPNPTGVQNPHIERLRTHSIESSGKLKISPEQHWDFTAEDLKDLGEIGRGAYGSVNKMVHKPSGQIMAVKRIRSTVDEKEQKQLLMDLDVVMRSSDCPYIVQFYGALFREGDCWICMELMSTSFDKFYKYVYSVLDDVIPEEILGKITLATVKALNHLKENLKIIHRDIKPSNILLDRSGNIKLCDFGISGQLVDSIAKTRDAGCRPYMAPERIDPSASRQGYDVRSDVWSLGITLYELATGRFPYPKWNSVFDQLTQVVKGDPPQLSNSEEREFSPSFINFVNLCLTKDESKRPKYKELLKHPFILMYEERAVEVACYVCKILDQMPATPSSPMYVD
Test: Further analysis of a plurality of inhibitors and a plurality of kinases on microarray (Example IX, Table 5);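 for Inhibition level, MAP2K4: level 0 none or unclear Level 1 marginal Level 2 substantial inhibition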
Assay type: biochemical
Details: plate E6; inhibitor 100 uM
measure name: Inhibition level, MAP2K4
One number for each entry.

The examples below pair each entry with its known result.
O=S(=O)(NCCNC/C=C/c1ccc(Br)cc1)c1cccc2cnccc12: 1
N#C/C(=C/c1ccc(O)c(O)c1)C(=O)NCc1ccccc1: 0
COc1cc2ncnc(Nc3cccc(Cl)c3)c2cc1OC: 0
CC(C)(C)n1nc(-c2ccc(Cl)cc2)c2c(N)ncnc21: 2

Attention now shifts to the item below.
For the compound shown here, `CC(=O)c1c(O)c(C)c(O)c(Cc2c(O)c3c(c(C(=O)/C=C/c4ccccc4)c2O)OC(C)(C)C=C3)c1O` , give the reported Inhibition level, MAP2K4.
1

* * *

For each record, write down the corresponding Inhibition level, RET.
Target: plurality of kinases (Table 5) (Homo sapiens)
Test: Further analysis of a plurality of inhibitors and a plurality of kinases on microarray (Example IX, Table 5)
Format: biochemical
Details: plate B7; inhibitor 100 uM
Numbers only.

Worked examples, 6 compounds total:
Cn1cc(C2=C(c3cn(CCCSC(=N)N)c4ccccc34)C(=O)NC2=O)c2ccccc21: 0
CC(C)(C)n1nc(-c2ccc(Cl)cc2)c2c(N)ncnc21: 2
N#C/C(=C/c1ccc(O)c(O)c1)C(=O)NCc1ccccc1: 2
O=S(=O)(NCCNC/C=C/c1ccc(Br)cc1)c1cccc2cnccc12: 0
O=c1c(-c2ccc(O)cc2)coc2cc(O)cc(O)c12: 2
COc1cc2ncnc(Nc3cccc(Cl)c3)c2cc1OC: 2

From here, focus on the item given below.
Reported Inhibition level, RET for plurality of kinases (Table 5) (Homo sapiens), given `CC(=O)c1c(O)c(C)c(O)c(Cc2c(O)c3c(c(C(=O)/C=C/c4ccccc4)c2O)OC(C)(C)C=C3)c1O` ?
0

* * *

Target: plurality of kinases (Table 5) (Homo sapiens)
Assay: Further analysis of a plurality of inhibitors and a plurality of kinases on microarray (Example IX, Table 5)
Assay type: biochemical
Details: plate C3; inhibitor 100 uM
Assignment: determine reported Inhibition level, STK16 for the given molecules.
Numbers only.

// below: answered molecules
CC(C)(C)n1nc(-c2ccc(Cl)cc2)c2c(N)ncnc21: 2
N#C/C(=C/c1ccc(O)c(O)c1)C(=O)NCc1ccccc1: 0
O=c1c(O)c(-c2ccc(O)c(O)c2)oc2cc(O)cc(O)c12: 0

# input for lookup
Checklist item: Inhibition level, STK16 tested on plurality of kinases (Table 5) (Homo sapiens), entry `O=S(=O)(NCCNC/C=C/c1ccc(Br)cc1)c1cccc2cnccc12` , value?
2

* * *

Molecular target: plurality of kinases (Table 5) (Homo sapiens)
Assay: Further analysis of a plurality of inhibitors and a plurality of kinases on microarray (Example IX, Table 5);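 for Inhibition level, TLK2: level 0 none or unclear Level 1 marginal Level 2 substantial inhibition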
Assay type: biochemical
Details: plate C8; inhibitor 100 uM
I'd appreciate it if you could supply Inhibition level, TLK2 values for the items below.

Past entries and their recorded results:
O=c1c(O)c(-c2ccc(O)c(O)c2)oc2cc(O)cc(O)c12: 0
Cn1cc(C2=C(c3cn(CCCSC(=N)N)c4ccccc34)C(=O)NC2=O)c2ccccc21: 1
N#C/C(=C/c1ccc(O)c(O)c1)C(=O)NCc1ccccc1: 2
O=c1c(-c2ccc(O)cc2)coc2cc(O)cc(O)c12: 2

Consider the record given below.
Which Inhibition level, TLK2 value belongs to `O=S(=O)(NCCNC/C=C/c1ccc(Br)cc1)c1cccc2cnccc12` ?
2
